Assignment: determine reported TGI for the given compounds.
# System: A549 NSCLC
# procedure-details: NCI tumour cell line growth inhibition, 48 h
Numeric only. Scale: µM

Challenge: Return reported TGI; argument: CCOC(=O)C1=C(N)Oc2cc(OC)ccc2C1c1ccc(F)c(F)c1 (stereo not given)
Response given: 19.4

Challenge: Return reported TGI; argument: "C(#Cc1ccccc1C#Cc1ccccn1)c1ccc(OCCCCCCOc2ccc(C#Cc3ccccc3C#Cc3ccccn3)cc2)cc1"
Response given: 13.8

###

# Tested on: LXFL 529 NSCLC
# procedure-details: NCI tumour cell line growth inhibition, 48 h
Assignment: determine reported TGI for the given molecules.

Challenge: Return reported TGI; argument: "C/C(CC(=O)Nc1ccc([N+](=O)[O-])cc1)=N/N=C(N)N"
Response given: > 100 µM

Challenge: Return reported TGI; argument: Cn1c(C2CC(C)(C)c3c2c2ccccc2n3C)cc2ccccc21 (stereo unspecified)
Response given: > 304 µM

Challenge: Return reported TGI; argument: COc1cc([C@@H]2c3cc4c(cc3[C@@H](NC(=O)c3ccc([N+](=O)[O-])cc3)C3COC(=O)[C@@H]32)OCO4)cc(OC)c1O (stereo partly specified)
Response given: > 100 µM

Challenge: Return reported TGI; argument: Cc1ccccc1C(C#N)/C(=N/NC(=O)C(=O)NN)C(=O)Nc1cccc(C(F)(F)F)c1 (stereo unspecified)
Response given: > 100 µM

Challenge: Return reported TGI; argument: O=C1CC23CC(=O)CC2(C1)c1ccccc1C3=O (stereo unspecified)
Response given: > 100 µM

Challenge: Return reported TGI; argument: CC1=NN(c2ccccc2)C(=O)C1C(=O)C(=O)Nc1ccc(C)cc1C (stereo unspecified)
Response given: > 100 µM

Challenge: Return reported TGI; argument: "O=CN/C=C/c1ccccc1O"
Response given: > 100 µM

Challenge: Return reported TGI; argument: COC(=O)CCC(=O)C(C#N)c1ccc(Cl)cc1Cl (stereo unspecified)
Response given: > 100 µM

Challenge: Return reported TGI; argument: "Cc1ccc(S(=O)(=O)NC(=O)Nc2nc(Cl)cc(Cl)n2)cc1"
Response given: > 100 µM

Challenge: Return reported TGI; argument: C=C1CCC2C(C)(CO)C(O)CCC2(C)C1CC(O)C1=CCOC1=O (stereo unspecified)
Response given: > 100 µM

Challenge: Return reported TGI; argument: COC1(C)Cc2c(c(C)c(O)c3c2C(=O)C=C(Cl)C3=O)O1 (stereo unspecified)
Response given: 28.9 µM

###

# System: MDA-MB-231 breast
# procedure-details: NCI tumour cell line growth inhibition, 48 h
Assignment: determine reported TGI for the given compounds.
Numeric only. Scale: µM

Challenge: Return reported TGI; argument: "Cn1cc(-c2nc(-c3cn(C)c4ncccc34)cs2)c2cc(F)ccc21"
Response given: 22.2

Challenge: Return reported TGI; argument: "O=C1C=CC(=O)N1CCCCCCCCCCN1C(=O)C=CC1=O"
Response given: 29.5

###

# System: SW-620 colon
# procedure-details: NCI tumour cell line growth inhibition, 48 h
metric: TGI

Challenge: Field: TGI (SW-620 colon). Entry: "Cc1cc(NC(=O)C(=O)Cc2nc3ccccc3s2)ccc1Cl"
Response given: > 100 µM

Challenge: Field: TGI (SW-620 colon). Entry: O=C1CCC2(c3ccc(F)cc3)Nc3ncncc3N12 (stereo not drawn)
Response given: > 10 µM

Challenge: Field: TGI (SW-620 colon). Entry: CC1(CC(=O)OC(C#C[Si](C)(C)C)Cc2ccccc2)OCCO1 (stereo not drawn)
Response given: > 100 µM
